target: CCK-B receptor (Mus musculus); construct: crude membrane specimen from mouse cerebral cortex; from tissue; host or cells: cerebral cortex of male ddY mice, crude membranes; test: CCK-B receptor antagonism, displacement of [3H]CCK-8, cerebral cortex crude membrane; type: binding, mouse (male ddY); conditions: mouse cerebral cortex membrane, [3H]CCK-8 1 nM, 90 min, 25 °C; read-out: Receptor CCK-B (IC50)
Measured IC50, listed per entry for reference.
measured-metric: IC50 (nM)

| molecule | tgt | observed |
| --- | --- | --- |
| O=C(Nc1cccc(-c2nnn[nH]2)c1)NC1C(=O)N(CC(=O)N2CCCC2)c2ccccc2N(CC(=O)N2CCCC2)C1=O [Compound 18-iv] | CCK-B receptor (Mus musculus) | 38 |
| O=C(Nc1cccc(OCc2nnn[nH]2)c1)NC1C(=O)N(CC(=O)C2CC2)c2ccccc2N(CC(=O)C2CC2)C1=O [Compound 17-vii] | CCK-B receptor (Mus musculus) | 4 |
| Cc1cccc(NC(=O)NC2C(=O)N(CC(=O)c3ccco3)c3ccccc3N(CC(=O)c3ccco3)C2=O)c1 [Compound 8f] | CCK-B receptor (Mus musculus) | 17 |
| CC(C)(C)OC(=O)CN1C(=O)C(NC(=O)Nc2cccc(COC(=O)NCCCC(=O)OCc3ccccc3)c2)C(=O)N(CC(=O)OC(C)(C)C)c2ccccc21 [Compound 10s] | CCK-B receptor (Mus musculus) | 4 |
| O=C(CN1C(=O)C(NC(=O)Nc2cccc(COC(=O)NCCCC(=O)OCc3ccccc3)c2)C(=O)N(CC(=O)NC2CC2)c2ccccc21)NC1CC1 [Compound 10c] | CCK-B receptor (Mus musculus) | 380 |
| CC(=O)NS(=O)(=O)c1cccc(NC(=O)NC2C(=O)N(CC(=O)C3CC3)c3ccccc3N(CC(=O)C3CC3)C2=O)c1 [Compound 17-xi] | CCK-B receptor (Mus musculus) | 115 |

----------
Biological target: CCK-B receptor (Mus musculus, UniProt P56481)
Construct: crude membrane specimen from mouse cerebral cortex; from tissue; host or cells: cerebral cortex of male ddY mice, crude membranes
Sequence (P56481 1-453): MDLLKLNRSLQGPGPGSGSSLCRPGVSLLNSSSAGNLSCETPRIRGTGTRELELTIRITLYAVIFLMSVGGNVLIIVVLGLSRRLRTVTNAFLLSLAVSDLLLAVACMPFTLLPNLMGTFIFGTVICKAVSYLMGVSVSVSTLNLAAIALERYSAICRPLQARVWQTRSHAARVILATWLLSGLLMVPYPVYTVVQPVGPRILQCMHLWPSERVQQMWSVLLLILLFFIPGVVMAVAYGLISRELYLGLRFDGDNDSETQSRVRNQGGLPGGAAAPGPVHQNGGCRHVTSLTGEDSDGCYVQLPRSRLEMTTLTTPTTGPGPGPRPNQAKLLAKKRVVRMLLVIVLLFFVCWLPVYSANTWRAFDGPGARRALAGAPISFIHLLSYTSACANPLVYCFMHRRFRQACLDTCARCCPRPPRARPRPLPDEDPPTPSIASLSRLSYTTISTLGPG
Assay: CCK-B receptor antagonism, displacement of [3H]CCK-8, cerebral cortex crude membrane
Assay type: binding, mouse (male ddY)
Conditions: mouse cerebral cortex membrane, [3H]CCK-8 1 nM, 90 min, 25 °C; read-out: Receptor CCK-B (IC50)
pIC50: −log10 of the molar value.
Measured pIC50, listed per entry for reference.

| mol-smiles | pIC50 |
| --- | --- |
| O=C(Nc1cccc(-c2nnn[nH]2)c1)NC1C(=O)N(CC(=O)c2cccs2)c2ccccc2N(CC(=O)c2cccs2)C1=O | 8.52 |
| Cc1cccc(NC(=O)NC2C(=O)N(Cc3cccc(N)c3)c3ccccc3N(Cc3cccc(N)c3)C2=O)c1 | 7.68 |
| CCOC(=O)c1cccc(NC(=O)NC2C(=O)N(CC(=O)C3CC3)c3ccccc3N(CC(=O)C3CC3)C2=O)c1 | 6.85 |
| O=C(O)COc1cccc(NC(=O)NC2C(=O)N(CC(=O)C3CC3)c3ccccc3N(CC(=O)C3CC3)C2=O)c1 | 7.80 |

----------
biological target: gastrin receptor (Cavia porcellus, UniProt H0VZC5); construct: stomach was extracted from each animal immediately, from which gastric glands were prepared; from tissue; host or cells: gastric (fundic) glands of male Hartley guinea pigs; assay: Gastrin receptor antagonism, displacement of 125I-labeled gastrin, gastric (fundic) gland cells; format: binding, guinea pig (male Hartley); details: guinea pig gastric glands, 125I-gastrin 0.2 nM, 30 min, 25 °C; read-out: Receptor Gastrin (IC50)
Sequence (H0VZC5 1-426): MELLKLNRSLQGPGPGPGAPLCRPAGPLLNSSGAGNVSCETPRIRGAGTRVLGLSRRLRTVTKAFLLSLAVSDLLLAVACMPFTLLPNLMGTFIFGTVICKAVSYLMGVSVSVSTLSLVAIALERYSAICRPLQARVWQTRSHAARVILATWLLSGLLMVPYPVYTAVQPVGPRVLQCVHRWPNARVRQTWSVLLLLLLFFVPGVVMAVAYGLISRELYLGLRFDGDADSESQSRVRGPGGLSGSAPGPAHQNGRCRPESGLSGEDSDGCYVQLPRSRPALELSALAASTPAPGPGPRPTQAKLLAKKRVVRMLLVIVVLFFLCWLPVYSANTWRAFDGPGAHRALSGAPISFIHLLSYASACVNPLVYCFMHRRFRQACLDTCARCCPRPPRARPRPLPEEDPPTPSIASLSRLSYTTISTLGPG
Measured IC50, listed per entry for reference.
measured-metric: IC50 (nM)

| mol-smiles | tgt | result-qualifier | observed |
| --- | --- | --- | --- |
| O=C(Nc1cccc(SCc2nnn[nH]2)c1)NC1C(=O)N(CC(=O)C2CC2)c2ccccc2N(CC(=O)C2CC2)C1=O | gastrin receptor (Cavia porcellus, UniProt H0VZC5) | < | 1 |
| O=C(O)Cc1cccc(NC(=O)NC2C(=O)N(CC(=O)C3CC3)c3ccccc3N(CC(=O)C3CC3)C2=O)c1 | gastrin receptor (Cavia porcellus, UniProt H0VZC5) | = | 2 |
| CCOC(=O)c1cccc(NC(=O)NC2C(=O)N(CC(=O)N3CCCC3)c3ccccc3N(CC(=O)N3CCCC3)C2=O)c1 | gastrin receptor (Cavia porcellus, UniProt H0VZC5) | = | 25 |
| O=C(Nc1cccc(C(=O)O)c1)NC1C(=O)N(CC(=O)C2CC2)c2ccccc2N(CC(=O)C2CC2)C1=O | gastrin receptor (Cavia porcellus, UniProt H0VZC5) | = | 5 |
| Cc1cccc(NC(=O)NC2C(=O)N(Cc3cccc(N)c3)c3ccccc3N(Cc3cccc(N)c3)C2=O)c1 | gastrin receptor (Cavia porcellus, UniProt H0VZC5) | = | 18 |

----------
biological target: gastrin receptor (Cavia porcellus); construct: stomach was extracted from each animal immediately, from which gastric glands were prepared; from tissue; host or cells: gastric (fundic) glands of male Hartley guinea pigs; test: Gastrin receptor antagonism, displacement of 125I-labeled gastrin, gastric (fundic) gland cells; assay type: binding, guinea pig (male Hartley); conditions: guinea pig gastric glands, 125I-gastrin 0.2 nM, 30 min, 25 °C; read-out: Receptor Gastrin (IC50)
measured-metric: log10 of IC50 (log10 of the value in µM)

| molecule | tgt | measured-metric | observed |
| --- | --- | --- | --- |
| O=C(Nc1cccc(-c2nc(=O)o[nH]2)c1)NC1C(=O)N(CC(=O)C2CC2)c2ccccc2N(CC(=O)C2CC2)C1=O | gastrin receptor (Cavia porcellus) | log10 of IC50 | -3.00 |
| O=C(O)Cc1cccc(NC(=O)NC2C(=O)N(CC(=O)N3CCCC3)c3ccccc3N(CC(=O)N3CCCC3)C2=O)c1 | gastrin receptor (Cavia porcellus) | log10 of IC50 | -2.15 |
| CCOC(=O)COc1cccc(NC(=O)NC2C(=O)N(CC(=O)C3CC3)c3ccccc3N(CC(=O)C3CC3)C2=O)c1 | gastrin receptor (Cavia porcellus) | log10 of IC50 | -1.80 |
| COC(=O)Cc1cccc(NC(=O)NC2C(=O)N(CC(=O)C3CC3)c3ccccc3N(CC(=O)C3CC3)C2=O)c1 | gastrin receptor (Cavia porcellus) | log10 of IC50 | -1.82 |
| O=C(CN1C(=O)C(NC(=O)Nc2cccc(COC(=O)NCCCC(=O)OCc3ccccc3)c2)C(=O)N(CC(=O)NC2CC2)c2ccccc21)NC1CC1 [Compound 10c] | gastrin receptor (Cavia porcellus) | log10 of IC50 | -1.19 |
| O=C(Nc1cccc(-c2nnn[nH]2)c1)NC1C(=O)N(CC2CC2)c2ccccc2N(CC2CC2)C1=O | gastrin receptor (Cavia porcellus) | log10 of IC50 | -2.22 |

----------
Measured pIC50, listed per entry for reference.
target: CCK-A receptor (Mus musculus); construct: crude membrane specimen from mouse pancreas; from tissue; host or cells: pancreas of male ddY mice, crude membranes; experiment: CCK-A receptor antagonism, displacement of [3H]CCK-8, pancreas crude membrane; assay type: binding, mouse (male ddY); settings: mouse pancreas membrane, [3H]CCK-8 1 nM, 90 min, 25 °C; read-out: Receptor CCK-A (IC50)
Sequence (O08786 whole entry): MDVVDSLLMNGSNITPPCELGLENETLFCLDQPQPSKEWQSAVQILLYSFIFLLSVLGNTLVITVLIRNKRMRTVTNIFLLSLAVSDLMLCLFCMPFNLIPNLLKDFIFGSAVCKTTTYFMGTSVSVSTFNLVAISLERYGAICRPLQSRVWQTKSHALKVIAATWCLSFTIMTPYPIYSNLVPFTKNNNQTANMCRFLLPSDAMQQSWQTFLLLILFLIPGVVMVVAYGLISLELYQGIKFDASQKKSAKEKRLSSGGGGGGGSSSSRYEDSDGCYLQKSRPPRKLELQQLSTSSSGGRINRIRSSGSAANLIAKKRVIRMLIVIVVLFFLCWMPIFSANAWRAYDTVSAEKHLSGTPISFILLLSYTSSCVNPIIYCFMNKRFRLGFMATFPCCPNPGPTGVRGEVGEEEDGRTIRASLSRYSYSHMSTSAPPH
pIC50: −log10 of the molar value.

| compound | pIC50 |
| --- | --- |
| O=C(Nc1cccc(-c2nnn[nH]2)c1)NC1C(=O)N(CC(=O)c2cccs2)c2ccccc2N(CC(=O)c2cccs2)C1=O [Compound 20-iv] | 6.42 |
| CCOC(=O)c1cccc(NC(=O)NC2C(=O)N(CC(=O)N3CCCC3)c3ccccc3N(CC(=O)N3CCCC3)C2=O)c1 [Compound 18-i] | 5.49 |
| O=C(Nc1cccc(-c2nnn[nH]2)c1)NC1C(=O)N(CC(=O)N2CCCC2)c2ccccc2N(CC(=O)N2CCCC2)C1=O [Compound 18-iv] | 5.44 |
| Cc1cccc(NC(=O)NC2C(=O)N(CC(=O)N3CCCC3)c3ccccc3N(CC(=O)N3CCCC3)C2=O)c1 [Compound 8a] | 6.07 |
| CCOC(=O)CSc1cccc(NC(=O)NC2C(=O)N(CC(=O)C3CC3)c3ccccc3N(CC(=O)C3CC3)C2=O)c1 [Compound 17-viii] | 6.34 |
| O=C(CN1C(=O)C(NC(=O)Nc2cccc(COC(=O)NCCCC(=O)OCc3ccccc3)c2)C(=O)N(CC(=O)NC2CC2)c2ccccc21)NC1CC1 [Compound 10c] | 5.68 |

Values compiled from patent US5776929A.
